Attribute measured: melting point

Some compounds with known melting point results, for comparison:
>>> observed_value("O=C(Nc1cccc(S(=O)(=O)NCc2ccncc2)c1)c1cnn2c(C(F)(F)F)cc(-c3ccc(C(F)(F)F)cc3)nc12")
"251 °C"
>>> observed_value("CC(C)(C)n1nc(-c2ccoc2)c(C(N)=O)c1N")
"177 °C"
>>> observed_value("CCCCS(=O)(=O)Nc1ccc(CCCCOCCCCCCNCC(O)c2ccc(O)c(CO)n2)cc1 (centres undefined)")
"55 to 57 °C"
>>> observed_value("CCOP(=O)(OCC)C(C)c1cn(C(c2ccccc2)(c2ccccc2)c2ccccc2)cn1 (centres undefined)")
"124 to 126 °C"
>>> observed_value("CCCCC(=O)Nc1ccc([N+](=O)[O-])cc1")
"107 to 116 °C"
>>> observed_value("C(=C\\c1cc(/C=C/c2ccc3cc[nH]c3c2)n[nH]1)/c1ccc(-c2ccccc2)cc1")
"273 to 276 °C"
>>> observed_value("CN(C)CCC(=O)Nc1ccc2c(=O)c3ccc(NC(=O)CCN(C)C)cc3[nH]c2c1")
"> 320 °C"
>>> observed_value("NNC(=O)c1cn(C2CCN(Cc3ccccc3)C2)nn1 (centres undefined)")
"123 °C"
>>> observed_value("CC12CCC(=O)C=C1CCC1C3CC(OCC(=O)c4ccccc4)C(O)(C(=O)CO)C3(C)CC(O)C12F (centres undefined)")
"228 to 230 °C"
>>> observed_value("O=S(=O)(NCCCCl)c1ccc(Nc2ncnc3cc(Cl)ccc23)cc1")
"168 to 171 °C"

Request: Consider the compound shown here: CN1C(=O)CCC2(C)c3ccc(C(c4ccccc4)c4ccccc4)cc3CCC12 (centres undefined) What is its recorded melting point?
Response: 145 to 146 °C

----------
Attribute measured: melting point

Examples with their reported melting point follow.
>>> observed_value("CCCCNc1cc(CN(Cc2ccccc2)C(=O)OCC)cc(S(N)(=O)=O)c1Oc1ccccc1")
"82 to 83 °C"
>>> observed_value("O=S(=O)(CC1CC1)c1nc[nH]n1")
"140 to 149 °C"
>>> observed_value("CCOCCN(CC1=CCC(NC(C)=O)(Oc2ccccc2)C=C1)C(=O)C(Cl)Cl (stereo not given)")
"114 to 116 °C"
>>> observed_value("COC(=O)c1nc(C)c(-c2ccccc2)nc1N")
"162 °C"
>>> observed_value("Cn1ncc(C(N)=O)c1-c1ccc([N+](=O)[O-])o1")
"174 to 176 °C"
>>> observed_value("C=CCONC(=O)c1nc(-c2ccc(Cl)c(OC)c2F)nc(N)c1C=C")
"98 to 101 °C"
>>> observed_value("Cc1cc(OCc2coc(C=Cc3ccc(SC(F)(F)F)cc3)n2)ccc1COCCn1ccnn1")
"102 °C"
>>> observed_value("CCCN(CCC)C1Cc2cc3c(cc2C1)C(=O)N(c1ccc(C(N)=O)cc1)C3=O")
"275 to 276 °C"

Request: melting point for "CCOC(=O)c1cnn(-c2ccc(F)cc2)c1" ?
Response: 119 to 121 °C

Request: Requested field: melting point. Item: "CCCc1nc2c(N)nc3cc(Br)ccc3c2n1CCCON=C(C)C"
Response: 182 to 183 °C

----------
Attribute measured: melting point

Example entries and their recorded answers appear below.
>>> observed_value("COc1cc(C(O)c2cnc(Cl)nc2Cl)cc(OC)c1OC (stereo not given)")
"115 to 118 °C"
>>> observed_value("COC(=O)c1ccc(F)cc1SC(=O)N(C)C")
"190 °C"
>>> observed_value("N#Cc1ccc(CCC(O)c2ccc(C#N)cc2)cc1 (stereo not given)")
"110 to 112 °C"
>>> observed_value("CC(C)CC(S)C(=O)NC(CC(C)C)C(=O)NC(Cc1ccc(-c2cccs2)nc1)C(=O)O (stereo not given)")
"156 to 158 °C"
>>> observed_value("COC(=O)c1ccc(COc2ccc3cc(-c4csc(-c5ccccc5)n4)ccc3c2Br)cc1")
"173 to 175 °C"

Request: Param item = CN1CCCc2cccc(CS(=O)c3nc4ccccc4[nH]3)c21 (stereo not given) ; retrieve measured melting point.
Response: 112 to 113 °C

Request: melting point for "CCCc1cc(-c2cccs2)n[nH]c1=O" ?
Response: 171 to 174 °C

Request: Quick check: melting point of CC(=O)Oc1cc2c(cc1C(C)(C)C)OC(C)(COc1ccc([N+](=O)[O-])cc1)CC2=O (stereo not given) ?
Response: 82 to 84 °C

Request: Suppose we examine the molecule COC(=O)NC(C)Cc1cccc([N+](=O)[O-])c1 (stereo not given) ; what melting point value has been reported?
Response: 104 to 105 °C

Request: For "OCCc1c[nH]c2ccc(F)cc12" , what is its reported melting point?
Response: 59 to 61 °C

Taken from a melting point compilation (Tetko et al.; mined from patent text by program, amines drawn as free bases though some values may be those of a salt).
